System: α7 integrin (LacZ reporter in α7βgal+/− myoblasts)
Test: Myoblast α7+/LacZ integrin FDG assay (Burkin assay in myoblasts, 96-well)
Format: cell-based, mouse
Settings: 40 uM; α7+/LacZ myoblasts, 96-well
Parameter Burkin Assay in Myoblasts, signal relative to DMSO: see the listing below.

Example entries begin here.
>>> result("CCCN(C(=O)c1ccc(S(=O)(=O)N2CCCC2)cc1)C1CCS(=O)(=O)C1 (stereo not shown)")
0.9354
>>> result("O=C(NCc1ccccc1)C(c1c(F)cccc1Cl)N(C(=O)c1csnn1)C1CC1 (stereo not shown)")
0.5684
>>> result("CCc1nnc(NC(=O)c2ccc(S(=O)(=O)NCC(C)C)cc2)s1")
0.816
>>> result("O=C(Nc1ccccc1OC(=O)c1ccc(Cl)cc1)c1ccc(Cl)cc1")
0.6235
>>> result("CCOC(=O)c1sc(=N)n(-c2ccc(OC)cc2)c1C")
0.3956
>>> result("CCn1c(=O)c2cc(C(=O)N(C)c3cc(C)ccc3OC)sc2c2ccccc21")
0.6077
>>> result("O=C(CSc1nnc2c(n1)[nH]c1ccccc12)NCc1ccccc1F")
1.284
>>> result("Cl.O=C1C2CCCN2C(=O)N1CCCN1CCN(c2cccc(Br)c2)CC1 (stereo not shown)")
1.1941
>>> result("N#Cc1ccccc1S(=O)(=O)N1CCN(C(=O)C2CCCCC2)CC1")
0.9184

Next, consider the following compound.
Req: Please give the measured Burkin Assay in Myoblasts, signal relative to DMSO for this compound: `O=c1oc2c(-c3cccc(F)c3)cc(O)cc2s1`
Resp: 0.6354

----------
Listed compounds paired with reported Burkin Assay in Myotubes, α7 integrin LacZ reporter signal relative to DMSO
Test system: α7 integrin (LacZ reporter in α7+/LacZ myotubes)
Test: Myotube α7 integrin FDG assay (Burkin assay in myotubes, 96-well)
Format: cell-based, mouse
Details: myotubes, 1 uM
A bare number is all that is needed in reply.

Some compounds with recorded Burkin Assay in Myotubes, α7 integrin LacZ reporter signal relative to DMSO:
>>> numeric_readout("CCN(CC)C(=O)c1sc2nc(-c3ccc(OC)cc3)cn2c1C [MLS000089464-01]")
1.029
>>> numeric_readout("Nc1cccc(/C=C/C(=O)O)c1 [MLS000777780-01]")
0.9837

# evaluate next
Req: Given the compound CCOC(=O)C1=C(CC)Nc2ccccc2N=C1NC(=O)c1ccc(OC)c(S(=O)(=O)N2CCCCC2C)c1 (stereo not drawn) [MLS000776409-01] , what is its reported Burkin Assay in Myotubes, α7 integrin LacZ reporter signal relative to DMSO?
Resp: 1.029

----------
Test system: β-galactosidase in CMV-LacZ C2C12 myotubes
Test: CMV-LacZ secondary screen in C2C12 myotubes (β-Gal stabilizing assay)
Format: cell-based, mouse
Conditions: 10 uM; C2C12 CMV-LacZ myotubes; fold relative to DMSO
# label = true (1) if CMV-LACZ in Myotubes, signal relative to DMSO < 1 else false (0)

>>> class("COC(=O)C1=NNC2(C)C(=O)N(c3ccc(C)cc3)C(=O)C12 (centres unmarked)")
"false (0)"
>>> class("CCNC(=O)CSc1nc(-c2ccc(F)cc2)cs1")
"true (1)"
>>> class("CCCCNS(=O)(=O)c1ccc2nc(-c3cccnc3)cc(C(=O)NCCOC)c2c1")
"true (1)"
>>> class("Oc1c(Br)cc(Br)cc1CNc1cccc2cccnc12")
"true (1)"

Req: Report whether reported CMV-LACZ in Myotubes, signal relative to DMSO is lower than 1 (strictly) for CCCN(C(=O)c1ccc(S(=O)(=O)N2CCCC2)cc1)C1CCS(=O)(=O)C1 (centres unmarked)
Resp: true (1)

Req: Here's an entry: `COc1ccc(C)cc1NC(=O)c1ccc2c(O)c(S(=O)(=O)c3ccccc3)c(=O)[nH]c2c1` . Is its CMV-LACZ in Myotubes, signal relative to DMSO below 1?
Resp: true (1)

Req: Report whether reported CMV-LACZ in Myotubes, signal relative to DMSO is lower than 1 (strictly) for CC(=O)C1=C(C)Nc2ncnn2C1c1ccc(C)cc1 (centres unmarked)
Resp: false (0)

Req: # TODO verify CMV-LACZ in Myotubes, signal relative to DMSO < 1 strictly for this compound: `CCNC(=O)COC(=O)c1cc(-c2ccco2)nc2ccccc12`
Resp: false (0)

Req: Criterion: CMV-LACZ in Myotubes, signal relative to DMSO strictly below 1. Is it met by `CCc1nnc(NC(=O)c2ccc(S(=O)(=O)NCC(C)C)cc2)s1` ?
Resp: true (1)
